- tested-on: Rac GTPase-activating protein 1 (Homo sapiens) (UniProt Q9H0H5)
- Sequence (Q9H0H5 whole entry, looked up): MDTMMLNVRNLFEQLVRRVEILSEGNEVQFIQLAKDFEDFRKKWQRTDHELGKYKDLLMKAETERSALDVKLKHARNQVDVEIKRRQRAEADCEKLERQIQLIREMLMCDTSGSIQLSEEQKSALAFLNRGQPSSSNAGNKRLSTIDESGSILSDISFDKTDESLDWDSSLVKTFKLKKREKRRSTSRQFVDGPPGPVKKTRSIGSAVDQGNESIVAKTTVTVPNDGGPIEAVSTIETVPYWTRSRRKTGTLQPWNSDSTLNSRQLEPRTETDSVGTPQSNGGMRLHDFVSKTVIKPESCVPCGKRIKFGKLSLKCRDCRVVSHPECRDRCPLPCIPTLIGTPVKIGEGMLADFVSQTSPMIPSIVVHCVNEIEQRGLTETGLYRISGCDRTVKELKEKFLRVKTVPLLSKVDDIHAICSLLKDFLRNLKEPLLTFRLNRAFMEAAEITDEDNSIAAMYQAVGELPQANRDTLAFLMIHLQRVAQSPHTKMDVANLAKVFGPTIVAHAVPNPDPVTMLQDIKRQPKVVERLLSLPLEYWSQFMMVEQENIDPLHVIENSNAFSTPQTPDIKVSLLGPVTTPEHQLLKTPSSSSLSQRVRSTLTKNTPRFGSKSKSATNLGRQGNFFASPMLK
- assay-remarks: blockers of MgcRacGAP-driven Rac1 GTP hydrolysis – biochemical, ADP Hunter fluorescence, primary and confirmatory, confirmation (AID 624330);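 note: fluorescence reports GDP produced by GAP-driven GTP hydrolysis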
- applied-conditions: MgcRacGAP-stimulated Rac1 GTP hydrolysis, at 30 µM, active compounds read high, GST-tagged Rac1 F28L mutant substrate
The campaign covered roughly 340,000 compounds. About 2,100 (0.62%) were called active. A selection follows. Potency and affinity values are given separately.
// values below are reported inhibition
Response body: numeric value in %, unit text excluded.

Here are 5 compounds together with their reported answers.
CN(C1CCS(=O)(=O)C1)S(=O)(=O)c1ccc(N2CCCC2=O)cc1 (stereo unspecified) : 14.4
COc1cccc(/C=N/NC(=O)c2cnccn2)c1 : 8.84
COc1ccc(N(CC(=O)Nc2ccc(OC)c(OC)c2)S(=O)(=O)c2ccccc2)cc1Cl : 12.2
COc1ccc(/C=C/CN2CCC(Oc3ccc(C(=O)N4CCCCC4)cc3)CC2)cc1 : 7.82
O=C1OC(c2ccccc2)=C/C1=C/N1CCCCC1 : 30.7

Exercise: For the compound c1ccc(-c2csc(NNC3=NCCCCC3)n2)cc1 , report inhibition.
Key: -65.3
